- MEASUREMENT_TARGET: hSyk (full length) (Homo sapiens, UniProt P43405)
- Construct: Purified recombinant hSyk (full length)
- PROTOCOL_NOTES: Inhibition of enzymatic Syk kinase activity (HTRF)
- Type: biochemical
- CONDITION_DETAILS: IC50 for Syk inhibition, Table 2; read-out: Syk HTRF
Answer each item with its documented IC50.
Entry rule: numbers only, all in nM.

Q. Consider the molecule CC(C)Nc1nc(-c2ccc(C(C)(C)O)nc2)cc2ncn(C)c(=O)c12 [Example 6] and give its measured IC50.
A. 190

Q. And what about the molecule CNS(=O)(=O)c1cc(-c2cc3ncn(C)c(=O)c3c(NC3CCC3)n2)ccc1OC [Example 415] ?
A. 131

Q. Next molecule up: Cn1cnc2cc(-c3ccc4c(c3)NC(=O)C(C)(C)O4)nc(NCC(F)F)c2c1=O [Example 273]
A. 198

Q. Then Cn1cnc2cc(-c3ccc4c(c3)NC(=O)C4)nc(NCc3ccnc(N)c3)c2c1=O [Example 278] ?
A. 84.3
